# Assay Method Text: Inhibition of NS5A in HCV genotype 1a infected in human HuH7 replicon cells assessed as reduction in viral replication after 3 days by luciferase reporter gene assay
# key: entry, value: EC50
Kindly provide the numeric value in nM only, without the unit symbol.

[
  {
    "Molecule": "COC(=O)N[C@H](C(=O)N1CCC[C@H]1C(=O)Nc1ccc([C@@H]2CC[C@@H](c3ccc(NC(=O)[C@@H]4CCCN4C(=O)[C@@H](NC(=O)OC)C(C)C)cc3)N2c2ccc([Si](C)(C)C(C)(C)C)cc2)cc1)C(C)C",
    "EC50 / nM": 0.011
  }
]

Per the record, COC(=O)N[C@H](C(=O)N1CCC[C@H]1C(=O)Nc1ccc([C@@H]2CC[C@@H](c3ccc(NC(=O)[C@@H]4CCCN4C(=O)[C@@H](NC(=O)OC)C(C)C)cc3)N2c2ccc(C(C)(C)C)cc2)cc1)C(C)C [CHEBI:85183] has EC50 of 0.03

###

# Assay Method Text: Inhibition of NS5A in HCV genotype 3a infected in human HuH7 replicon cells expressing HCV genotype 1b chimeric replicon assessed as reduction in viral replication after 3 days by luciferase reporter gene assay
Reported pEC50 is given for each of the following compounds.
In textbook form, pEC50 equals minus log to base ten of the concentration in mol/L.

[
  {
    "Structure Smiles": "CC[Si](CC)(CC)c1ccc(N2[C@H](c3ccc(NC(=O)[C@@H]4CCCN4C(=O)[C@@H](NC(=O)OC)C(C)C)cc3)CC[C@H]2c2ccc(NC(=O)[C@@H]3CCCN3C(=O)[C@@H](NC(=O)OC)C(C)C)cc2)cc1",
    "Measured Number": 11.00
  },
  {
    "Structure Smiles": "COC(=O)N[C@H](C(=O)N1CCC[C@H]1C(=O)Nc1ccc([C@@H]2CC[C@@H](c3ccc(NC(=O)[C@@H]4CCCN4C(=O)[C@@H](NC(=O)OC)C(C)C)cc3)N2c2ccc(C(C)(C)C)cc2)cc1)C(C)C",
    "Measured Number": 10.07
  },
  {
    "Structure Smiles": "COC(=O)N[C@H](C(=O)N1CCC[C@H]1C(=O)Nc1ccc([C@@H]2CC[C@@H](c3ccc(NC(=O)[C@@H]4CCCN4C(=O)[C@@H](NC(=O)OC)C(C)C)cc3)N2c2ccc([Si](C)(C)C(C)(C)C)cc2)cc1)C(C)C",
    "Measured Number": 10.92
  }
]

For reference, reported pEC50 for COC(=O)N[C@H](C(=O)N1CCC[C@H]1C(=O)Nc1ccc([C@@H]2CC[C@@H](c3ccc(NC(=O)[C@@H]4CCCN4C(=O)[C@@H](NC(=O)OC)C(C)C)cc3)N2c2ccc([Si](C)(C)C)cc2)cc1)C(C)C stands at 10.42

###

# Assay Method Text: Inhibition of NS5A in HCV genotype 1b infected in human HuH7 replicon cells assessed as reduction in viral replication after 3 days by luciferase reporter gene assay
Readout Name: pEC50
Notebook: values listed as pEC50 are -log10 of the concentration (mol/L).

Before answering, review these 2 worked examples.
[
  {
    "Molecule": "COC(=O)N[C@H](C(=O)N1CCC[C@H]1C(=O)Nc1ccc([C@H]2CC[C@@H](c3ccc(NC(=O)[C@@H]4CCCN4C(=O)[C@@H](NC(=O)OC)C(C)C)cc3)N2c2ccc([Si](C)(C)C)cc2)cc1)C(C)C",
    "pEC50": 11.10
  },
  {
    "Molecule": "COC(=O)N[C@H](C(=O)N1CCC[C@H]1C(=O)Nc1ccc([C@@H]2CC[C@@H](c3ccc(NC(=O)[C@@H]4CCCN4C(=O)[C@@H](NC(=O)OC)C(C)C)cc3)N2c2ccc([Si](C)(C)C)cc2)cc1)C(C)C",
    "pEC50": 11.40
  }
]

Please look at the following molecule next.
// pEC50 value for COC(=O)N[C@H](C(=O)N1CCC[C@H]1C(=O)Nc1ccc([C@@H]2CC[C@@H](c3ccc(NC(=O)[C@@H]4CCCN4C(=O)[C@@H](NC(=O)OC)C(C)C)cc3)N2c2ccc(C(C)(C)C)cc2)cc1)C(C)C [CHEBI:85183] : 11.30

###

Attribute: EC50
# Assay Method Text: Inhibition of NS5A in HCV genotype 1a infected in human HuH7 replicon cells assessed as reduction in viral replication after 3 days by luciferase reporter gene assay
Provide the reading as a plain figure in nM.

[
  {
    "Structure Smiles": "CC[Si](CC)(CC)c1ccc(N2[C@@H](c3ccc(NC(=O)[C@@H]4CCCN4C(=O)[C@@H](NC(=O)OC)C(C)C)cc3)CC[C@@H]2c2ccc(NC(=O)[C@@H]3CCCN3C(=O)[C@@H](NC(=O)OC)C(C)C)cc2)cc1",
    "Measured Number": 0.041
  }
]

Entry COC(=O)N[C@H](C(=O)N1CCC[C@H]1C(=O)Nc1ccc([C@H]2CC[C@H](c3ccc(NC(=O)[C@@H]4CCCN4C(=O)[C@@H](NC(=O)OC)C(C)C)cc3)N2c2ccc([Si](C)(C)C)cc2)cc1)C(C)C ; EC50 = 0.118

The recorded EC50 for CC[Si](CC)(CC)c1ccc(N2[C@H](c3ccc(NC(=O)[C@@H]4CCCN4C(=O)[C@@H](NC(=O)OC)C(C)C)cc3)CC[C@H]2c2ccc(NC(=O)[C@@H]3CCCN3C(=O)[C@@H](NC(=O)OC)C(C)C)cc2)cc1 is 0.007

Field EC50 (entry COC(=O)N[C@H](C(=O)N1CCC[C@H]1C(=O)Nc1ccc([C@@H]2CC[C@@H](c3ccc(NC(=O)[C@@H]4CCCN4C(=O)[C@@H](NC(=O)OC)C(C)C)cc3)N2c2ccc([Si](C)(C)C)cc2)cc1)C(C)C ) reads 0.014

###

pEC50 listing for selected compounds.
# Assay Method Text: Inhibition of NS5A in HCV genotype 6a infected in human HuH7 replicon cells expressing HCV genotype 1b chimeric replicon assessed as reduction in viral replication after 3 days by luciferase reporter gene assay
Would you please state pEC50, meaning minus log10 of the concentration in mol/L, as a bare number?

Completed entries (count: 3):
[
  {
    "Compound": "COC(=O)N[C@H](C(=O)N1CCC[C@H]1C(=O)Nc1ccc([C@@H]2CC[C@@H](c3ccc(NC(=O)[C@@H]4CCCN4C(=O)[C@@H](NC(=O)OC)C(C)C)cc3)N2c2ccc(C(C)(C)C)cc2)cc1)C(C)C [CHEBI:85183]",
    "pEC50": 8.47
  },
  {
    "Compound": "COC(=O)N[C@H](C(=O)N1CCC[C@H]1C(=O)Nc1ccc([C@@H]2CC[C@@H](c3ccc(NC(=O)[C@@H]4CCCN4C(=O)[C@@H](NC(=O)OC)C(C)C)cc3)N2c2ccc([Si](C)(C)C)cc2)cc1)C(C)C",
    "pEC50": 8.85
  },
  {
    "Compound": "CC[Si](CC)(CC)c1ccc(N2[C@H](c3ccc(NC(=O)[C@@H]4CCCN4C(=O)[C@@H](NC(=O)OC)C(C)C)cc3)CC[C@H]2c2ccc(NC(=O)[C@@H]3CCCN3C(=O)[C@@H](NC(=O)OC)C(C)C)cc2)cc1",
    "pEC50": 9.35
  }
]

Consider the record given below.
Form field pEC50, entry COC(=O)N[C@H](C(=O)N1CCC[C@H]1C(=O)Nc1ccc([C@@H]2CC[C@@H](c3ccc(NC(=O)[C@@H]4CCCN4C(=O)[C@@H](NC(=O)OC)C(C)C)cc3)N2c2ccc([Si](C)(C)C(C)(C)C)cc2)cc1)C(C)C : 9.03

###

# Assay Method Text: Inhibition of NS5A in HCV genotype 5a infected in human HuH7 replicon cells expressing HCV genotype 1b chimeric replicon assessed as reduction in viral replication after 3 days by luciferase reporter gene assay
Readout Name: pEC50
Scale note: pEC50 = -log10(concentration in M).

Here are 2 molecules together with their reported answers.
[
  {
    "Structure Smiles": "COC(=O)N[C@H](C(=O)N1CCC[C@H]1C(=O)Nc1ccc([C@@H]2CC[C@@H](c3ccc(NC(=O)[C@@H]4CCCN4C(=O)[C@@H](NC(=O)OC)C(C)C)cc3)N2c2ccc([Si](C)(C)C)cc2)cc1)C(C)C",
    "pEC50": 12.00
  },
  {
    "Structure Smiles": "COC(=O)N[C@H](C(=O)N1CCC[C@H]1C(=O)Nc1ccc([C@@H]2CC[C@@H](c3ccc(NC(=O)[C@@H]4CCCN4C(=O)[C@@H](NC(=O)OC)C(C)C)cc3)N2c2ccc([Si](C)(C)C(C)(C)C)cc2)cc1)C(C)C",
    "pEC50": 12.00
  }
]

Noted for COC(=O)N[C@H](C(=O)N1CCC[C@H]1C(=O)Nc1ccc([C@@H]2CC[C@@H](c3ccc(NC(=O)[C@@H]4CCCN4C(=O)[C@@H](NC(=O)OC)C(C)C)cc3)N2c2ccc(C(C)(C)C)cc2)cc1)C(C)C : its pEC50 reads 11.40

// pEC50 lookup, molecule = CC[Si](CC)(CC)c1ccc(N2[C@H](c3ccc(NC(=O)[C@@H]4CCCN4C(=O)[C@@H](NC(=O)OC)C(C)C)cc3)CC[C@H]2c2ccc(NC(=O)[C@@H]3CCCN3C(=O)[C@@H](NC(=O)OC)C(C)C)cc2)cc1 , result: 12.00
